- assay target: Human recombinant full length HDAC1 (Homo sapiens (Human), UniProt Q13547)
- Sequence (Q13547 whole entry): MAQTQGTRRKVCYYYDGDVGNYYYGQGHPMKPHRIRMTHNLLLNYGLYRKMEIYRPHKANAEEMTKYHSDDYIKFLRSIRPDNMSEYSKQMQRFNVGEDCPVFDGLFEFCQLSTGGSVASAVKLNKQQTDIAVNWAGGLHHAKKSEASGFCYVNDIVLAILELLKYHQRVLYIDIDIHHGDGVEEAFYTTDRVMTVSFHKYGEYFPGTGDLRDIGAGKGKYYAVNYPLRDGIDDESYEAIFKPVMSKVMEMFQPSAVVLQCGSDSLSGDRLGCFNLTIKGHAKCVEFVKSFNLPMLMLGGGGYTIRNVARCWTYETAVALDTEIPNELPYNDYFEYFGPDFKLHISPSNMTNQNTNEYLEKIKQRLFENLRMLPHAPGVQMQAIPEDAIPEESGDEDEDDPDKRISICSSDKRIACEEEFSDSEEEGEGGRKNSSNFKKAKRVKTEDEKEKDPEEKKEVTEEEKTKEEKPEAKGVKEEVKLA
- assay protocol: HDAC1 assay (Test 2), acetyl-Gly-Ala-Lys(acetyl)-AMC substrate
- measurement setup: 5 μM substrate, 2 hours at room temperature
pIC50: −log10 of the molar value.
experimental endpoint: pIC50

{"compound": "CN(Cc1ccncc1)c1ncc(-c2noc(C(F)(F)F)n2)cn1 [Example 3]", "pIC50": 5.49}
{"compound": "Cc1ccc(CNc2ncc(-c3noc(C(F)(F)F)n3)cc2Cl)cn1 [Example 38]", "pIC50": 5.85}
{"compound": "CC(Nc1ccc(-c2noc(C(F)(F)F)n2)cn1)c1ccccc1 (stereo not shown) [Example 29]", "pIC50": 5.21}
{"compound": "Cc1ccc(CNc2ccc(-c3noc(C(F)(F)F)n3)cn2)cn1 [Example 32]", "pIC50": 5.62}
{"compound": "C[C@@H](Nc1cnc(-c2noc(C(F)(F)F)n2)nc1)c1ccccc1 [Example 41]", "pIC50": 5.40}
{"compound": "C[C@@H](Nc1ncc(-c2noc(C(F)(F)F)n2)cc1Cl)c1ccccc1 [Example 34]", "pIC50": 5.20}
{"compound": "FC(F)(F)c1nc(-c2ccc(NCc3ccccc3)nn2)no1 [Example 40]", "pIC50": 5.10}
{"compound": "CC[C@@H](Nc1ncc(-c2noc(C(F)(F)F)n2)cn1)c1ccccc1 [Example 13]", "pIC50": 5.77}
{"compound": "C[C@@H](Nc1ccc(-c2noc(C(F)(F)F)n2)nn1)c1ccncc1 [Example 45]", "pIC50": 5.49}
{"compound": "C[C@@H](Nc1ncc(-c2noc(C(F)(F)F)n2)cn1)c1ccccc1 [Example 12]", "pIC50": 5.46}

A = CCC(Nc1ncc(-c2noc(C(F)(F)F)n2)cn1)c1ccncc1 (stereo not shown) [Example 15]
B = FC(F)(F)c1nc(-c2cnc(NCc3ccncc3)nc2)no1 [Example 6]
C = FC(F)(F)c1nc(-c2cnc(NCc3cccnc3)nc2)no1 [Example 10]
D = FC(F)(F)c1nc(-c2cnc(NCc3cccnc3)c(Cl)c2)no1 [Example 37]
Arrange the 4 entries by pIC50 so the values rise. Answer format: list of labels, ordered as asked.
C, A, D, B

----------
- assay target: Human recombinant full length HDAC6 (Homo sapiens (Human))
- Sequence (Q9UBN7 whole entry): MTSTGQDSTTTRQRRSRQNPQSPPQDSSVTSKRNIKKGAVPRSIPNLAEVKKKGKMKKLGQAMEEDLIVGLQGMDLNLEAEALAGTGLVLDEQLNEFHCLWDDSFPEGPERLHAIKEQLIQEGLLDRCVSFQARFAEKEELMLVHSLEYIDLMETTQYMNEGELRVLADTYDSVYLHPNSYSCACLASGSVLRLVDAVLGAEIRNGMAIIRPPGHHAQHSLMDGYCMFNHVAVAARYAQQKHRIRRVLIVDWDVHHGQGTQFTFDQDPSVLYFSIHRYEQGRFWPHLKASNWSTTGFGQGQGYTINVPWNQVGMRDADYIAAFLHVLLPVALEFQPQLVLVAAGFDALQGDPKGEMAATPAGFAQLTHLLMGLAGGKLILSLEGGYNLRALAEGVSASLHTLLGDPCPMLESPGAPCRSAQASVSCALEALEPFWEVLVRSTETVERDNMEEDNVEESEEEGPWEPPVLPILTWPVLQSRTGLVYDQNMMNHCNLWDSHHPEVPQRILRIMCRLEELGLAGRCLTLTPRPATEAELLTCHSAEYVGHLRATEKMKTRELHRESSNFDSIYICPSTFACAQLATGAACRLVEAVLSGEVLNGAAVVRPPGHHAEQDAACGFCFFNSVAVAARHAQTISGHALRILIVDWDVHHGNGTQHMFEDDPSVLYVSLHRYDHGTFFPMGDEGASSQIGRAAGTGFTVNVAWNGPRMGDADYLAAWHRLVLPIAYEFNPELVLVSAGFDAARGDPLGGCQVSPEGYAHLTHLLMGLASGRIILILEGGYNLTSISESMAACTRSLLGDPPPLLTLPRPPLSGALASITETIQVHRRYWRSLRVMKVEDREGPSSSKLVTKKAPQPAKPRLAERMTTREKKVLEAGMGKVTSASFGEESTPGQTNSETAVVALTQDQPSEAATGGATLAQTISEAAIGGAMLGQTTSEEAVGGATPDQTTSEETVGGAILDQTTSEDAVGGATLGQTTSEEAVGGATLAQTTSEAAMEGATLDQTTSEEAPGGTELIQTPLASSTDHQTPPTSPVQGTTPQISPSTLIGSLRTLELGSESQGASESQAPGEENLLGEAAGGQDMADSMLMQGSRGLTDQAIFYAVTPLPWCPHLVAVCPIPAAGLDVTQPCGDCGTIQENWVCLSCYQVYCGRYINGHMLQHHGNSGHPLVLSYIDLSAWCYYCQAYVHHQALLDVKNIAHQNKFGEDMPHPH
- assay protocol: HDAC6 assay (Test 3), acetyl-Gly-Ala-Lys(acetyl)-AMC substrate
- measurement setup: 5 μM substrate, 2 hours at room temperature
experimental endpoint: IC50 (nM)

{"compound": "Cc1ccc(CNc2ccc(-c3noc(C(F)(F)F)n3)cn2)cn1", "quantity unit": "nM", "measured value": 770}

P = Cc1cc(C(C)Nc2ncc(-c3noc(C(F)(F)F)n3)cn2)ccn1 (centres unmarked)
Q = FC(F)(F)c1nc(-c2ccc(NCc3ccccc3)nn2)no1
R = FC(F)(F)c1nc(-c2ccc(NCc3ccncc3)nc2)no1
Please list these in order of increasing IC50. Thank you! # output: labels, in the requested order
P, Q, R
(P: 350 nM, Q: 840 nM, R: 1600 nM)

----------
- assay target: Human recombinant full length HDAC1 (Homo sapiens (Human))
- assay protocol: HDAC1 assay (Test 2), acetyl-Gly-Ala-Lys(acetyl)-AMC substrate
- measurement setup: 5 μM substrate, 2 hours at room temperature
experimental endpoint: IC50 (µM)

Consider the following illustrative entries.
{"molecule": "CN(CCc1ccncc1)c1ncc(-c2noc(C(F)(F)F)n2)cn1 [Example 14]", "quantity unit": "µM", "IC50": 7.6}
{"molecule": "Cc1ccc(CNc2ncc(-c3noc(C(F)(F)F)n3)cn2)cn1 [Example 8]", "quantity unit": "µM", "IC50": 3}

a = FC(F)(F)c1nc(-c2ccc(NCc3ccccc3)cn2)no1 [Example 27]
b = Cc1cccc(CNc2ncc(-c3noc(C(F)(F)F)n3)cn2)n1 [Example 11]
c = FC(F)(F)c1nc(-c2cnc(NCc3ccncc3)c(Cl)c2)no1 [Example 35]
d = CC(CN(C)C)NC(=O)c1ccc(-c2noc(C(F)(F)F)n2)nc1 (stereo not drawn) [Example 19]
e = FC(F)(F)c1nc(-c2ccc(NCc3ccncc3)nc2)no1 [Example 31]
Place the items in sequence of falling IC50. As an answer, provide the labels arranged in the order called for.
a, e, d, c, b
(a: 9.6 µM, e: 4.5 µM, d: 1.7 µM, c: 1.1 µM, b: 0.51 µM)

----------
- assay target: Human recombinant full length HDAC1 (Homo sapiens (Human))
- assay protocol: HDAC1 assay (Test 2), acetyl-Gly-Ala-Lys(acetyl)-AMC substrate
- measurement setup: 5 μM substrate, 2 hours at room temperature
experimental endpoint: IC50 (nM)

I = CN(Cc1ccnc(Cl)c1)c1ncc(-c2noc(C(F)(F)F)n2)cn1
II = C[C@@H](Nc1ccc(-c2noc(C(F)(F)F)n2)cn1)c1ccncc1
# return whichever of I and II has the smaller IC50 // output: label of the selected item
I

----------
- assay target: Human recombinant HDAC4 (Homo sapiens (Human))
- Sequence (P56524 2-1084): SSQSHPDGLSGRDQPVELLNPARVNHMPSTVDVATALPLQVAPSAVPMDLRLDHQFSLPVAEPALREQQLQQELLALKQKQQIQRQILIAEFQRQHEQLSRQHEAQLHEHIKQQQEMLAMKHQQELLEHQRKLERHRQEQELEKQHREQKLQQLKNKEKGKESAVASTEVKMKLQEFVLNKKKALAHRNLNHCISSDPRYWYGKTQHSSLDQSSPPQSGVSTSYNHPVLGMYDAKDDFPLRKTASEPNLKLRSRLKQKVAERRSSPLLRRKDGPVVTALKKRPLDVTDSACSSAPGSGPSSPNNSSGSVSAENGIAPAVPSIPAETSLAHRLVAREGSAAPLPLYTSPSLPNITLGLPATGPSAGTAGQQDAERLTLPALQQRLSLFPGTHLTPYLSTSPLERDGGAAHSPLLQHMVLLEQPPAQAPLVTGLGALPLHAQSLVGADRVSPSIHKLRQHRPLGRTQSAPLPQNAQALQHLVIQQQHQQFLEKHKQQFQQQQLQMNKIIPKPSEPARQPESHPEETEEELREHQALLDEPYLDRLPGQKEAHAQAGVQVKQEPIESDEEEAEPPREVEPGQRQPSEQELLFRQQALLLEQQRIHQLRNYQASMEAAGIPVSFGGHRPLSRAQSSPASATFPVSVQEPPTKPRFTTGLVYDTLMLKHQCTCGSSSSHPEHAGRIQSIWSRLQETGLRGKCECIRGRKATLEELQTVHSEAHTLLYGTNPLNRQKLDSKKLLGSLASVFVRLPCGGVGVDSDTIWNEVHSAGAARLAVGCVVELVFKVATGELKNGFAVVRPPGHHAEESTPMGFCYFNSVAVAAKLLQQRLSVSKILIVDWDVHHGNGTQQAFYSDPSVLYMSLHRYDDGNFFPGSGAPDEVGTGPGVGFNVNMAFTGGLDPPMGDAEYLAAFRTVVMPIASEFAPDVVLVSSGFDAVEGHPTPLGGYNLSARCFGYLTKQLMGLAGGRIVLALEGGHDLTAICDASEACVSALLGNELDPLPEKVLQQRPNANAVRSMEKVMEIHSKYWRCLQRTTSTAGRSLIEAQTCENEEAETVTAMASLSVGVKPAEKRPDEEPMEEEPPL
- assay protocol: Earlier version of HDAC4 assay
- Format: biochemical
- measurement setup: 10 μM substrate, test concentrations 0.003 μM to 100 μM
- Description: Description of Earlier Version of HDAC4 Assay Human recombinant HDAC4 was expressed in full length form (aa 2-1084) in Sf9 insect cells (obtained from ATCC) using baculovirus generated with Bac-to-Bac system (Invitrogen). Test compounds were serially diluted to reach final test concentrations from 0.003 μM to 100 μM. […] The plate was placed in a fluorescence microplate reader, and read at an excitation wavelength of 360 nm and an emission wavelength of 450 nm with a cut-off filter of 435 nm. […]
experimental endpoint: IC50

{"smiles data": "C[C@@H](NC(=O)c1cnc(-c2noc(C(F)(F)F)n2)nc1)c1ccccc1", "IC50": "> 30 µM"}

--- query ---
Lookup: IC50 / Human recombinant HDAC4 (Homo sapiens (Human)) / O=C(NCc1ccncc1)c1cnc(-c2noc(C(F)(F)F)n2)nc1
> 30 µM

----------
- assay target: Human recombinant HDAC4 (Homo sapiens (Human))
- assay protocol: HDAC4 assay (Test 1), fluorescence, acetyl-Gly-Ala-Lys(ε-trifluoroacetyl)-AMC substrate
- Format: biochemical
- measurement setup: 5 μM substrate, 2 hours at room temperature
experimental endpoint: IC50 (nM)

{"molecule": "C[C@H](CN(C)Cc1ccccc1)NC(=O)c1cnc(-c2noc(C(F)(F)F)n2)nc1 [Example 46]", "IC50, nM": 66}
{"molecule": "FC(F)(F)c1nc(-c2ccc(NCc3ccccc3)nc2)no1 [Example 28]", "IC50, nM": 73}
{"molecule": "FC(F)(F)c1nc(-c2ccc(NCc3cccnc3)nc2)no1 [Example 30]", "IC50, nM": 79}
{"molecule": "CCN(CC)C[C@H](NC(=O)c1ccc(-c2noc(C(F)(F)F)n2)nc1)C(C)C [Example 22]", "IC50, nM": 160}

P = FC(F)(F)c1nc(-c2cnc(NCc3cccnc3)nc2)no1 [Example 10]
Q = FC(F)(F)c1nc(-c2cnc(NCc3ccccc3)c(Cl)c2)no1 [Example 33]
// compare measured IC50, left P , right Q , return larger // return label of chosen record
P
(P: 140 nM, Q: 93 nM)
